Field: pIC50. Provide a value for each of the molecules that follow.
# assay notes: Antagonist activity at Escherichia coli UT189 FimH in guinea pig red blood cells assessed as disaggregation of bacteria after 600 secs by aggregometry assay
Give bare numbers, as −log10 of the molar value.

Example results:
In [3]: df
Out[3]:
                                     smiles  observed
0  COC(=O)c1ccc(-c2ccc(O[C@H]3O[C@H](CO)[C@@H](O)[C@H](O)[C@@H]3O)c(Cl)c2)cc1      5.05
1  COC(=O)c1ccc(-c2ccc(O[C@H]3O[C@H](CO)[C@@H](O)[C@H](O)[C@@H]3O)cc2Cl)cc1      4.39
2  O=C(O)c1ccc(-c2cccc(O[C@H]3O[C@H](CO)[C@@H](O)[C@H](O)[C@@H]3O)c2)cc1      4.35
3  COC(=O)c1ccc(-c2cc(Cl)c(O[C@H]3O[C@H](CO)[C@@H](O)[C@H](O)[C@@H]3O)c(Cl)c2)cc1      4.85
4  O=C(O)c1ccc(-c2ccc(O[C@H]3O[C@H](CO)[C@@H](O)[C@H](O)[C@@H]3O)cc2Cl)cc1      4.77
5  O=C(O)c1ccc(-c2ccc(O[C@H]3O[C@H](CO)[C@@H](O)[C@H](O)[C@@H]3O)cc2)cc1      4.35
6  COC(=O)c1ccc(-c2ccc(Cl)c(O[C@H]3O[C@H](CO)[C@@H](O)[C@H](O)[C@@H]3O)c2)cc1      4.51

Now for a further molecule.
I would be grateful if you could share the reported pIC50 for O=C(O)c1ccc(-c2ccc(O[C@H]3O[C@H](CO)[C@@H](O)[C@H](O)[C@@H]3O)c(Cl)c2)cc1 .
5.00

Recorded values, source BindingDB's records for doi:10.1021/jm101011y.
